MEASURED TARGET: the molecule itself
ASSAY PROCEDURE: SEC-MALS
PARAMETER MEASURED: stoichiometry N
Write the number on its own, no unit after it.

input: Query: stoichiometry N; subject: Chlamydia muridarum native major outer membrane protein (nMOMP), from adherent HeLa 229 cells (natural protein) LPVGNPAEPSLMIDGILWEGFGGDPCDPCTTWCDAISLRLGYYGDFVFDRVLKTDVNKQFEMGAAPTGDADLTTAPTPASRENPAYGKHMQDAEMFTNAAYMALNIWDRFDVFCTLGATSGYLKGNSAAFNLVGLFGRDETAVAADDIPNVSLSQAVVELYTDTAFAWSVGARAALWECGCATLGASFQYAQSKPKVEELNVLCNAAEFTINKPKGYVGQEFPLNIKAGTVSATDTKDASIDYHEWQASLALSYRLNMFTPYIGVKWSRASFDADTIRIAQPKLETSILKMTTWNPTISGSGIDVDTKITDTLQIVSLQLNKMKSRKSCGLAIGTTIVDADKYAVTVETRLIDERAAHVNAQFRF
output: 2.59
